Data provenance: the supplement of paper PMC6757056

B1: library; a variant is named by its letters at N, in order (parent)
chain: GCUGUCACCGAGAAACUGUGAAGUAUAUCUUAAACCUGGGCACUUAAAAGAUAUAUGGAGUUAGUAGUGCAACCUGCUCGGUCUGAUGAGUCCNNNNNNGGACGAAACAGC

- Variants of: B1
- ASSAY_METHOD_TEXT: FACS-Seq fitted mean relative fluorescence mCherry/BFP without ligand (log10 relative fluorescence); HEK293T; ligand: cyclic di-GMP (c-di-GMP-II aptamer); higher = higher reporter protein expression
- CONDITIONS: ligand present: no
Category scheme (FACS-Seq fitted mean (log10)): A = under -0.6, B = from -0.6 up to -0.4, C = -0.4 and over

| VARIANT | ASSIGNED_CATEGORY |
| --- | --- |
| AAGAGA | A |
| GCCGAA | C |
| GUGUUC | A |
| CCAGAC | C |
| UUUAGU | C |
| AUGGGU | B |
| CAGCUG | C |
| CGGCGC | B |
| GUUUAU | C |
| CAAUCU | A |
| AUACGA | B |
| UAGUAU | C |
| GAGCGU | A |
| ACCACC | A |
| UCAUGU | A |
| AAUGGA | B |
| AAUGGC | C |
| CCGAUG | A |
| CCGAAA | A |
| CGUCUU | C |
